Listed below: log10(IC50) values for each entry.
test_name: In vitro inhibition of growth of the human gastrointestinal adenocarcinoma cells HaTu80
Type: functional
protocol_conditions: Homo sapiens
// stored as log10 of IC50 expressed in µM

QUERY: Identify measured log10(IC50) associated with CN(Cc1cnc2nc(N)nc(N)c2n1)c1ccc(C(=O)N[C@@H](CCC(=O)O)C(=O)O)cc1 [METHOTREXATE]
RESULT: -2.05

Please find the next molecule below.
QUERY: Identify measured log10(IC50) associated with Cc1c(N(C)Cc2ccc(C(=O)NC(CCC(=O)O)C(=O)O)cc2)ccc2nc(N)nc(O)c12 (configuration not stated)
RESULT: 0.56

These data points were gathered from ChEMBL document CHEMBL1122572.
